Each entry below lists one item and its recorded CC50 value.
Assay: Cytotoxicity, Promega's cell viability assay kit
Format: cell-based
Details: human, Int-407 intestinal epithelial cells; summary in description; read-out: cytotoxic inhibitory concentration (IC50) against Int. 407
Method: Yeast cells or conidia (for filamentous fungi) were suspended in RPMI 1640 (with 50 mM glucose) medium to a final concentration of 10^4 cfu/ml and distributed in a 96-well microplate to a total volume of 100 μl/well. […] The MIC was defined as the lowest compound concentration at which no growth occurred, as determined visually and by OD600 measurement (or microscopically, inverted). […]

Memo: CC1=CC[C@H]2C(C)(C)CCC[C@]2(C)[C@H]1CO [drimenol, (−)-drimenol] , reported CC50: ~50 µg/mL

# CC50 of C=C1CC[C@H]2C(C)(C)CCC[C@]2(C)[C@H]1CO [Albicanol, (+)-albicanol] = ~50 µg/mL
